Examples of compounds with documented IC50 follow.
System: MCF-7
Test: Cytotoxicity (anticancer screening) on MCF-7
Type: cell-based, human
Setup conditions: MCF7; human breast adenocarcinoma cell line, 72 h of incubation
Observation type: IC50 (µg/mL)

>>> val("Cc1cc(=O)oc2c1ccc1oc(=N)c(C(N)=O)cc12")
49.4
>>> val("Cc1cc(=O)oc2c3c(ccc12)Oc1nc(CC#N)nc2nc(N)c(C#N)c-3c12")
30
>>> val("Cc1cc(=O)oc2c3c(ccc12)Oc1nc(CC#N)nc2nc4c(c-3c12)CCCCCC4")
8.9
>>> val("O=c1[nH]cc(F)c(=O)[nH]1 [Compound 5-Flu, 5-fluorouracil, reference compound]")
3
>>> val("CCOC(=O)c1cc2c(ccc3c(C)cc(=O)oc32)oc1=N")
52.1
>>> val("Cc1cc(=O)oc2c3c(ccc12)NC(=O)C1=C(N)OC2=C(CCC2)C13 (centres unmarked)")
53
>>> val("Cc1cc(=O)oc2c1ccc1oc(=O)c(C#N)cc12")
37
>>> val("Cc1cc(=O)oc2c3c(ccc12)OC(N)=C1C(=O)NC2=C(CCC2)C13 (centres unmarked)")
52

----------
Test system: MCF-7
Test: Cytotoxicity (anticancer screening) on MCF-7
Format: cell-based, human
Setup conditions: MCF7; human breast adenocarcinoma cell line, 72 h of incubation
Category scheme (IC50): lower bin = under 10 µg/mL, middle bin = from 10 µg/mL up to 50 µg/mL, upper bin = 50 µg/mL and over

>>> group_label("Cc1cc(=O)oc2c3c(ccc12)Oc1nc(CC#N)nc2nc4c(c-3c12)CCCCC4")
"lower bin"
>>> group_label("Cc1cc(=O)oc2c1ccc1oc(=N)c(C#N)cc12")
"upper bin"
>>> group_label("Cc1cc(=O)oc2c3c(ccc12)Oc1nc(CC#N)nc2nc(-c4ccccc4)cc-3c12")
"middle bin"
>>> group_label("Cc1cc(=O)oc2c1ccc1oc(=N)c3c(=O)oc4c(c3c12)CCC4")
"upper bin"
>>> group_label("Cc1cc(=O)oc2c3c(ccc12)Oc1nc(CC#N)nc2nc4c(c-3c12)CCC4")
"lower bin"
>>> group_label("CCOC(=O)c1cc2c(ccc3c(C)cc(=O)oc32)oc1=O")
"upper bin"
>>> group_label("Cc1cc(=O)oc2c1ccc1oc3nc(CC#N)nc(=N)c-3cc12")
"middle bin"
>>> group_label("Cc1cc(=O)oc2c1ccc1[nH]c(=O)c(C#N)cc12")
"middle bin"
>>> group_label("Cc1cc(=O)oc2c3c(ccc12)Oc1nc(CC#N)nc2nc4c(c-3c12)CCCC4")
"lower bin"

These measurements were taken from paper PMC12181260.
